Test system: M14 melanoma
EXPERIMENT: NCI-60 one-dose screen, 48 h
DETAILS: 10 µM unless noted
About 83,000 compounds went through this panel and 20% of them were active in at least one assay; those are over-represented in the sample as a whole. Activity calls are given as the source filed them. The calls were made as follows: active = growth percent below 10; inactive = the rest.
Labels: yes for active, no for inactive

{"COMPOUND": "COC(=O)c1ccc(NC(N)=NCC(C)(C)COc2ccc(C(F)(F)F)cc2)nc1", "DISCRETE_LABEL": "no"}
{"COMPOUND": "c1ccc(-c2nc3sc(C(c4ccccc4)c4ccccc4)nn3c2-c2ccccc2)cc1", "DISCRETE_LABEL": "no"}
{"COMPOUND": "COc1cc2c(cc1OC)-c1c(oc3c4c(ccc3c1=O)OC(C)(C)C=C4)CO2", "DISCRETE_LABEL": "no"}
{"COMPOUND": "O=C(Nc1ccc(-n2ccc3c(NC(=O)c4ccccc4)ncnc32)cc1)c1cccc(C(F)(F)F)c1", "DISCRETE_LABEL": "no"}
{"COMPOUND": "CNCCCOc1c(Br)cc(CCNC(=O)/C(Cc2cc(Br)c(OC)c(Br)c2)=N/O)cc1Br", "DISCRETE_LABEL": "yes"}
{"COMPOUND": "CC(C)NCC(O)COc1ccc(CC(N)=O)cc1 (stereo not given)", "DISCRETE_LABEL": "no"}
{"COMPOUND": "CCOC(=O)n1cnc2c(Cl)ncnc21", "DISCRETE_LABEL": "no"}
{"COMPOUND": "O=[N+]([O-])c1ccc(NS(=O)(=O)c2ccccc2)c2ccccc12", "DISCRETE_LABEL": "no"}
{"COMPOUND": "CN(CCNCc1ccccn1)CCNCc1ccccn1", "DISCRETE_LABEL": "yes"}
{"COMPOUND": "O=C(O)c1ccc(-n2cc(/C=N/Nc3ccc(F)cc3)c(-c3cccc(C(F)(F)F)c3)n2)cc1", "DISCRETE_LABEL": "no"}

====

Tested on: MDA-MB-231 breast
EXPERIMENT: NCI-60 one-dose screen, 48 h (100 = growth as untreated, 0 = no growth, -100 = all killed)
DETAILS: 10 µM unless noted
Compounds without any hit were thinned out: in the full panel of roughly 83,000, 20% have a hit.

{"COMPOUND": "CC(C)C(=O)Nc1nc2c(s1)CCCc1ccn(S(=O)(=O)c3ccccc3)c1-2", "growth [%]": 108}
{"COMPOUND": "O=C(COc1ccc(Cl)cc1Cl)N1N=C(c2ccc(Cl)cc2Cl)CC1(O)c1cc(F)c(Cl)cc1Cl (centres undefined)", "growth [%]": 136}
{"COMPOUND": "CN(CCNCc1ccccn1)CCNCc1ccccn1", "growth [%]": 1.53}
{"COMPOUND": "O=C1COc2ccccc2C(=O)N1CCCCNc1ccccc1", "growth [%]": 88.8}
{"COMPOUND": "COC(=O)c1oc2c(C(=O)/C=C/c3ccc(OC)cc3)c(OCCN3CCOCC3)ccc2c1C", "growth [%]": 3.21}
{"COMPOUND": "CC1=C[S+](c2ccccc2)c2cccc3cc4ccccc4c1c23 (centres undefined)", "growth [%]": -10.4}
{"COMPOUND": "Cc1cn(-c2cc(C(=O)Nc3cccc(-n4ccc5c(NC(=O)c6ccccc6)nccc54)c3)cc(C(F)(F)F)c2)cn1", "growth [%]": 4}
{"COMPOUND": "O=C(Nc1ccc(-n2cc(-c3ccncc3)c(-c3ccc(O)c(Cl)c3)n2)cc1)Nc1ccc(Cl)c(C(F)(F)F)c1", "growth [%]": -39.7}
{"COMPOUND": "N#Cc1c(N)nc2c(c1N)C(c1ccc(Cl)cc1)C1=C(CCCC1=O)N2c1sc2c(c1C#N)CCCC2 (centres undefined)", "growth [%]": 75.4}
{"COMPOUND": "O=S(=O)(CCN1CCOCC1)Nc1cncc(-c2ccc3ncnc(Nc4ccc(F)c(Cl)c4)c3c2)c1", "growth [%]": 67.9}
{"COMPOUND": "CC(=O)Oc1ccc(C(OC(C)=O)OC(C)=O)cc1", "growth [%]": 114}
{"COMPOUND": "CC(Cl)(CCl)CS(=O)(=O)c1ccc(Cl)cc1 (centres undefined)", "growth [%]": 96.5}
{"COMPOUND": "CC(C)(C)OC(=O)N1CCN(CCn2cc(C(F)(F)F)c3c(Cl)ncnc32)CC1", "growth [%]": 57.9}
{"COMPOUND": "C#C[C@H](O)/C=C/CCCCCCC#C[C@H](O)CC[C@@H](O)C#CCCCCCC/C=C/[C@@H](O)C#C", "growth [%]": 63.1}
{"COMPOUND": "COc1ccc2c(c1)/C(=C/c1c(-c3cc(OC)c(OC)c(OC)c3Br)nc3sccn13)C(=O)N2", "growth [%]": 81.4}
{"COMPOUND": "NCC(=O)NS(=O)(=O)OC[C@H]1O[C@@H](n2cnc3c(N)ncnc32)[C@H](O)[C@@H]1O", "growth [%]": 2.61}
{"COMPOUND": "C[C@@H]1CC2C3C[C@H](F)C4=CC(=O)C=C[C@]4(C)[C@@]3(F)[C@@H](O)C[C@]2(C)[C@@]1(O)C(=O)CO (some centres undefined)", "growth [%]": 95.1}
{"COMPOUND": "O=C(CSc1nnc(-c2cc3c([nH]c4ccccc43)c(-c3cccc(O)c3)n2)n1-c1ccccc1)c1ccccc1", "growth [%]": 78}
{"COMPOUND": "COC1=C(OC)C(=O)C=CC1=O", "growth [%]": 101}
